Cited source for all entries: the supplement of paper PMC9170038

System: MS2 coat protein
Test summary: apparent KD of MS2 coat protein, switch OFF state (with FMN for OFF switches, without FMN for ON switches); designed switch direction (-1 OFF switch, 1 ON switch): 1; higher = weaker reporter binding
Experimental setup: FMN input: 0 or 200 uM; Eterna round: R93 (includes R88 designs)
apparent KD of MS2 coat protein values by entry
Write down the numeric answer in µM and omit the unit.

Check out these entries, answers already filled in.
Construct sequence: AUAAUAAACUGUGAGGAUAUCCAUAAUAAAACAUGAGGAUCACCCAUGUGUAGAUAAUAAUAAUGGGAGAAGGCACAUAAUAAUA [Mat - Same state - Mayanna Mod - D102]
System tested: MS2 coat protein
apparent KD of MS2 coat protein / µM: 0.0262

Construct sequence: AAUAACAAAAGAAAGGAUAUGCGCACAGGAACAUGAGGAUCACCCAUGUGGCCCGAAAGGGCAUAGCAGAAGGUUCACACGCAUA [Default title]
System tested: MS2 coat protein
apparent KD of MS2 coat protein / µM: 0.042

Construct sequence: GCCUAACAUGAGGAUCACCCAUGUAGUGGGUUGUUAGGAUAUGGGCCGCAUUACGCUGCACCAGAAGGAAUAGAAG [Rasoraer]
System tested: MS2 coat protein
apparent KD of MS2 coat protein / µM: 0.475

Construct sequence: AUAUAUAUAAGGUAGGAUAUACUAAAGUAAACAUGAGGAUCACCCAUGUAAAGAAAGAAACUCAUGUAGAAGGACCAUAUAUAUA [Original: 77%, More Tesla, 1]
System tested: MS2 coat protein
apparent KD of MS2 coat protein / µM: 0.0999

Construct sequence: AAUAUAUUAAGCGAGGAUAUCGAGGAAAAAACAUGAGGAUCACCCAUGUGGGUAAAAAAAAAAAGUGAGAAGGUGCUUAAUAUAU [Samwise Clockwise 9 - Jieux - Same State 2]
System tested: MS2 coat protein
apparent KD of MS2 coat protein / µM: 0.0747

Consider the additional sequence presented here.
## Task Please state recorded apparent KD of MS2 coat protein (tested on MS2 coat protein) of GUCCAACAUGAGGAUCACCCAUGUGCAUGACACCGAGGAUAUGGGACUAAAGGUGCUGGACCAGAAGGCGGAAGAA [Laceus]
## Result 0.0458

###

apparent KD of MS2 coat protein values by entry
Test system: MS2 coat protein
Test summary: apparent KD of MS2 coat protein, switch OFF state (with FMN for OFF switches, without FMN for ON switches); designed switch direction (-1 OFF switch, 1 ON switch): -1; higher = weaker reporter binding
Experimental setup: FMN input: 0 or 200 uM; Eterna round: R93 (includes R88 designs)
Dear colleague, please send the value followed by its unit.

Check out these entries, answers already filled in.
Construct sequence: AACUGACAUGAGGAUCACCCAUGUCAGGAUAUGACAUCGAAAAAAAAAAAAAUCGUUGUCAGAAGGGACAUGGA [Design 74: Sub-opt R]
Result: 32.5 nM
//
Construct sequence: AUAAAGAGAGGAUAUACAUGAGGAUCACCCAUGUAAGAAAUAAAAUAAAUAAAGGGAAGUAGAAGGCUCAAAUA [Denovo 2]
Result: 42.5 nM
//
Construct sequence: AAAAAUGGAGGAUAUACAUGAGGAUCACCCAUGUGUAACAAAACAAAACACAAAAAAAGUAGAAGGCCAAAAAA [Gilly Gone Silly 5 - Jieux - Exclusion 3]
Result: 20.4 nM
//
Construct sequence: GAAAAACAUGAGGAUCACCCAUGUAAGGAUAUGCUAAAAAACACGGAAAAACGUGAUAGCAGAAGGUACAAAAG [Mat - Exclusion 1 - Eli mod - D88]
Result: 44 nM
//
Construct sequence: AAAAAACAUGAGGAUCACCCAUGUGAGGAUAUCCAAAAGUCAAAGAAAAAGACGAAAAGGAGAAGGCACAAAAA [Banishment 2 - Jieux - Exclusion 1]
Result: 49.1 nM
//
Construct sequence: AAAACGGUAGGAUAUACGAAAAAAAAGGGAGAACAAAAGGGACAUGAGGAUCACCCAUGUAGAAGGACCAAAAA [Diamond 89]
Result: 84.7 nM
//
Construct sequence: UUUAUGUGAGGAUAUCAGUAGUAAAAAAAUAAAAUUACUACUGAGAAGGCACAUGAGGAUCACCCAUGUGUCUC [EX4 350: Super Stable 50]
Result: 15 nM
//
Construct sequence: AAAAAGGAAGGAUAUACGAACAUGUCAAAAGACGUGAAGGGACAUGAGGAUCACCCAUGUAGAAGGUCUAAAAA [JL Half Open 26]
Result: 22.9 nM
//
Construct sequence: GAAUGCAGAGGAUAUACGGGAUAGCAUCGAAAGAUGCUAAAACAUGAGGAUCACCCAUGUAGAAGGCUGCAGAA [JL Mod 02]
Result: 144 nM
//
Construct sequence: ACAUGACAUGAGGAUCACCCAUGUGAGGAUAUGCGAAAAAAAUUUUUAAAAAAAAUUGGCAGAAGGCACAAAAU [George Ritzer.]
Result: 99.1 nM

## Task So what's the measured apparent KD of MS2 coat protein for this one? AGCUAGUGAGGAUAUGCGAACAUGUCAAAAGACGUGAAGGGACAUGAGGAUCACCCAUGUAGAAGGCGCUAGCA [JL 74% mod 2]
## Result 32.7 nM

## Task So what's the measured apparent KD of MS2 coat protein for this one? GAAAAGGUAGGAUAUACGAAAAAAAAGGGUAAAAAAUAAAAACAUGAGGAUCACCCAUGUAGAAGGACCAAAAG [Mat - Exclusion 2 - Tesla mod - D40]
## Result 55.3 nM

## Task So what's the measured apparent KD of MS2 coat protein for this one? AAAAAACAUGAGGAUCACCCAUGUGAGGAUAUGCAAAAAAAAAAAAAAAAAUAAAAAAGCAGAAGGCACAAAAA [Sh'dynasty]
## Result 33.2 nM

###

apparent KD of MS2 coat protein values by entry
System: MS2 coat protein
Test summary: apparent KD of MS2 coat protein; designed switch direction (-1 OFF switch, 1 ON switch): 1; higher = weaker reporter binding
Experimental setup: input ligand: microRNA oligo, concentration not stated
Write down the numeric answer in nM and omit the unit.

Check out these entries, answers already filled in.
Construct sequence: GCUGGCAUGCAAGGAUAUCCUUCCGAGUAGGAAGGAGAAGGUGCUUGUGGGACAUGAGGAUCACCCAUGUAUGUUGGCCACGAC [Inrala] (Eterna round: R96, puzzle: Same State NG 1)
System tested: MS2 coat protein
apparent KD of MS2 coat protein (nM): 82.1
--
Construct sequence: AGGAGUAUCUGACAUGAGGAUCACCCAUGUUCCAUUCUACGAUAGGAUAUCGAAAUACAAAGACGCGAGAAGGAUCAGAACCUA [Eternabot solution 48] (Eterna round: R96, puzzle: Same State NG 3)
System tested: MS2 coat protein
apparent KD of MS2 coat protein (nM): 16.5
--
Construct sequence: UCGAGCGUACUUGCAGACAUGAGGAUCACCCAUGUAAAUGGGAAGGAUAUGGUACCGUUUCGGUACCAGAAGGUCCUAGGUGCU [salish99_SSNG3_r04_306] (Eterna round: R96, puzzle: Same State NG 3)
System tested: MS2 coat protein
apparent KD of MS2 coat protein (nM): 327
--
Construct sequence: ACUAUUUAUGCAGGAUAUGAUUAACAUGAGGAUCACCCAUGUGGUGUUGUGAGUAAGGAGAGUGAUCAGAAGGGCAUUUUUUUU [JMF's solution 75] (Eterna round: R96, puzzle: Same State NG 2)
System tested: MS2 coat protein
apparent KD of MS2 coat protein (nM): 297
--
Construct sequence: GGACCCUUCGGAGGAUAUUCUCAGUAACAGUAAGAAGAAGGCCGUAAGUCAUACGCGCGUUACAUGAGGAUCACCCAUGUGUGG [Eternabot solution 47] (Eterna round: R96, puzzle: Same State NG 1)
System tested: MS2 coat protein
apparent KD of MS2 coat protein (nM): 150
--
Construct sequence: GGUAGGUUACUACCAAACAUGAGGAUCACCCAUGUAAGUGGGAAGGAUAUGGUACCUAAAAGGUACCAGAAGGUCCAAUUAAUU [Mat - Same State NG 3 - JL Mod - D98] (Eterna round: R96, puzzle: Same State NG 3)
System tested: MS2 coat protein
apparent KD of MS2 coat protein (nM): 436

## Task So what's the measured apparent KD of MS2 coat protein for this one? ACAUGAGGGUGAGGAUAUUGGAACUCACCUGACAUGAGGAUCACCCAUGUUCAAUGAGGAUCACCCAAGAAGGCACGUUGUGGA [Same State NG2 S3] (Eterna round: R96, puzzle: Same State NG 2)
## Result 24

## Task So what's the measured apparent KD of MS2 coat protein for this one? GAAACAUGACGAGGAUAUGGAACAUGAGGAUCACCCAUGUAUGUUCCAUAACGCGAAUGACGAAUCCAGAAGGCGUCGUGAAAG [Mat - Same State NG 2 - JL mod - D28] (Eterna round: R96, puzzle: Same State NG 2)
## Result 177

## Task So what's the measured apparent KD of MS2 coat protein for this one? UUUAUAUUCAGAGGAUAUUGAUGUUGUAUUUUACAAGAAGGCUGAUUGUUUUGUAAUGUUAUUAUACAUGAGGAUCACCCAUGU [JR_SSNG1_Sub014] (Eterna round: R96, puzzle: Same State NG 1)
## Result 17.3
